subject-of-test: human cyclin-dependent kinase 2 (Cdk2) (Homo sapiens)
Construct: poly-histidine; made in house; host or cells: E. coli
assay-explanation: Kinetic thiol consumption assay with wild type Cdk2 (C177)
Assay type: binding
assay-context: model thiol glutathione
measured-metric: k(Cdk2)/k(GSH) rate enhancement

# molecule, experimental-result
measured = [
    ("C=CC(=O)N(Cc1ccco1)C12CC3CC(CC(C3)C1)C2 [CA-157]", 0.7234),
    ("C=CC(=O)NC1(C2CC2)CC1 [CA-047]", 0.7407),
    ("C=CC(=O)NC1(c2noc(C)n2)CCCCCC1 [CA-162]", 0.9863),
    ("C=CC(=O)N1CCC2(CC1)NC(=O)N(C)C2=O [CA-046]", 0.3593),
    ("C=CC(=O)N1CCN(C(=O)OCC)CC1c1cccs1 (stereo not shown) [EL-1121]", 0.5173),
    ("C=CC(=O)NCc1ccc(C(=O)OC)cc1 [BN-65]", 0.4134),
    ("C=CC(=O)NC1(c2noc(C3CC3)n2)CCCC1 [CA-044]", 0.4838),
]
